Values compiled from PubChem BioAssay.

- ASSAY SUMMARY: P. aeruginosa biofilm formation inhibitors, primary screen, PAO1 strain, BacTiter-Glo luminescence, LB-PBS (AID 1144)
- PARTICULARS: 12 h, higher = more signal
PROPERTY LABEL: z-score

>  <SMILES NOTATION>
COc1ccc([Si](C)(C)[C@@H]2[C@@H](CC(=O)N3Cc4ccccc4C[C@H]3CO)O[C@]3(C(=O)N(c4ccccc4)c4ccccc43)[C@H]2C)cc1

>  <READOUT VALUE>
-0.751

$$$$
>  <SMILES NOTATION>
C=C(C(=O)CC[C@H](OC(=O)c1ccccc1-c1ccccc1C(=O)O)c1ccccc1OCCO)C(C)C

>  <READOUT VALUE>
-0.0112

$$$$
>  <SMILES NOTATION>
O=C1c2ccccc2[C@](Cc2ccccc2I)(C(=O)NC2CC2)[C@H](c2ccc(CO)cc2)N1Cc1ccccc1C(F)(F)F

>  <READOUT VALUE>
-0.0186

$$$$
>  <SMILES NOTATION>
COCCCNC(=O)[C@@]1(Sc2ccc(C)cc2)CC(=O)N(C(C)C)[C@@H]1c1ccc(CO)cc1I

>  <READOUT VALUE>
-0.96

$$$$

====

- Tested on: Lefty1
- ASSAY SUMMARY: Lefty1 binders on small-molecule microarrays, primary screen, biochemical, small-molecule microarray, 635/667 nm fluorescence (AID 1139)
- PARTICULARS: small-molecule microarray binding, fluorescence 635/667; higher = more signal

>  <COMPOUND>
[N-]=[N+]=Nc1ccccc1C[C@]1(C(=O)NCc2ccccc2)COC(c2ccc(OCCCO)cc2)=N1

>  <composite z-score>
0.556

$$$$
>  <COMPOUND>
CCOC(=O)C=Cc1cc(F)ccc1O

>  <composite z-score>
-0.471

$$$$
>  <COMPOUND>
COCCOC(=O)N1C(=O)[C@@]2(c3cc(C#CC4(O)CCCCCC4)ccc31)[C@H](c1ccc(OCCO)cc1)N1[C@H](c3ccccc3)[C@H](c3ccccc3)OC(=O)[C@H]1[C@@H]2C(=O)Nc1nc2ccccc2s1

>  <composite z-score>
1.38

$$$$
>  <COMPOUND>
COc1cc(C(O)C2C=CC3C(=O)N(Cc4ccccc4)C(=O)C3N2n2cnnc2)cc(OC)c1OC (stereo unspecified)

>  <composite z-score>
-0.493

$$$$
>  <COMPOUND>
C=CC[C@H](OC(=O)Nc1ccc(SC)cc1)c1ccc(OCCO)cc1

>  <composite z-score>
0.34

$$$$
>  <COMPOUND>
C=C(C)[C@@H]1CC=C(C(O)C2C=CC3C(=O)N(c4ccccc4)C(=O)C3N2Nc2ccc(C#N)cc2)CC1 (stereo partly specified)

>  <composite z-score>
0.0839

$$$$
>  <COMPOUND>
O=C1C2C=CC(C(O)C=Cc3ccc([N+](=O)[O-])cc3)N(Nc3ccccc3)C2C(=O)N1c1ccccc1 (stereo unspecified)

>  <composite z-score>
0.416

$$$$
>  <COMPOUND>
O=C1C2C=CC(C(O)c3cc(C(F)(F)F)cc(C(F)(F)F)c3)N(Nc3ccccc3F)C2C(=O)N1c1ccccc1 (stereo unspecified)

>  <composite z-score>
-0.173

$$$$
>  <COMPOUND>
C=C(COC)C(=O)CC[C@H](OC(C)=O)c1ccc(OCCO)cc1

>  <composite z-score>
1.46

$$$$
>  <COMPOUND>
COc1cc2c(cc1O)C(c1cccs1)N(Cc1sc3ccccc3c1Cl)CC2 (stereo unspecified)

>  <composite z-score>
0.72

$$$$
>  <COMPOUND>
CC(C)[Si]1(C(C)C)OCc2cc(-c3ccc(-c4ccc(Cl)c(Cl)c4)o3)nc(CCc3ccccc3)c21

>  <composite z-score>
0.0028

$$$$
>  <COMPOUND>
COC(=O)[C@@]1(Cc2ccc(F)cc2)[C@H]2c3cc(C(=O)N(C)C)n(Cc4ccc(O)c(OC)c4)c3C[C@H]2CN1C(=O)c1ccccc1

>  <composite z-score>
-0.0615

$$$$
>  <COMPOUND>
Cc1ccc(S[C@]2(C(=O)NCC(C)C)CC(=O)N(C3Cc4ccccc4C3)[C@@H]2c2ccc(CO)cc2I)cc1

>  <composite z-score>
-1.38

$$$$
>  <COMPOUND>
CCOC(=O)C1=CC[C@@H](c2ccccc2)N(S(=O)(=O)c2ccc(C)cc2)[C@H]1C=Cc1ccccc1

>  <composite z-score>
-0.584

$$$$
>  <COMPOUND>
COc1cc(NN2C(C(O)C3CCCCC3)C=CC3C(=O)N(c4ccccc4)C(=O)C32)cc(OC)c1OC (stereo unspecified)

>  <composite z-score>
-0.175

$$$$
>  <COMPOUND>
C=CC1c2cc(O)c(OC)cc2CCN1Cc1ccc([N+](=O)[O-])o1 (stereo unspecified)

>  <composite z-score>
-0.807

$$$$
>  <COMPOUND>
CN(C)CCCNC(=O)[C@@H]1c2ccccc2C(=O)N(C2CCCCC2)[C@H]1c1ccc(CO)cc1

>  <composite z-score>
1.04

$$$$
>  <COMPOUND>
CO[C@H]1O[C@H](CO)[C@@H](OC(=O)Nc2cccc(F)c2)[C@H](OC(=O)Nc2ccccc2-c2ccccc2)[C@H]1OC(=O)Nc1ccccc1-c1ccccc1

>  <composite z-score>
1.14

$$$$
>  <COMPOUND>
CCCNC(=O)[C@@]1(Sc2ccc(C)cc2)CC(=O)N(C2CCCCC2)[C@@H]1c1ccc(CO)cc1I

>  <composite z-score>
-0.351

$$$$
>  <COMPOUND>
O=C1OCCC/C=C\[C@H]2OC34C=CCN(c5ccc6ccccc6c5)C(=O)[C@H]3N(CCCO)C(=O)[C@@H]4C12 (stereo partly specified)

>  <composite z-score>
-0.345

$$$$
>  <COMPOUND>
CCCCCCCCCCC(O)C1C=CC2C(=O)N(c3ccccc3)C(=O)C2N1Nc1ccccc1F (stereo unspecified)

>  <composite z-score>
-0.833

$$$$
>  <COMPOUND>
O=C1C[C@@](C(=O)NCC(F)(F)F)(c2ccc([N+](=O)[O-])cc2)[C@@H](c2ccc(CO)cc2)N1CC12CC3CC(CC(C3)C1)C2

>  <composite z-score>
0.634

$$$$
>  <COMPOUND>
COc1ccc([Si](C)(C)[C@H]2[C@H](CCO)O[C@@]3(C(=O)N(Cc4ccccc4)c4ccc(N5C(=O)c6ccccc6Oc6ccccc65)cc43)[C@@H]2C)cc1

>  <composite z-score>
-0.204

$$$$
>  <COMPOUND>
CC1CC/C=C\[C@H]2OC34C=CCN(CCN5CCOCC5)C(=O)[C@H]3N(C(C)CO)C(=O)[C@@H]4C2C(=O)O1 (stereo partly specified)

>  <composite z-score>
0.582

$$$$
>  <COMPOUND>
C=CCC(OC(C)=O)[C@@H]1[C@@H](N(Cc2ccc(-c3cccc(C(F)(F)F)c3)o2)C(=O)c2cccc3ccccc23)c2cc(OCCCO)ccc2N1C(=O)Cc1ccc(OC)cc1 (stereo partly specified)

>  <composite z-score>
0.229

$$$$
>  <COMPOUND>
COCCOC(=O)N1C(=O)[C@@]2(c3ccccc31)[C@H](c1ccccc1OCCO)N1[C@H](c3ccccc3)[C@H](c3ccccc3)OC(=O)[C@H]1[C@@H]2C(N)=O

>  <composite z-score>
1.01

$$$$
>  <COMPOUND>
CN1C(=O)C2C=CC(C(O)c3cc(C(F)(F)F)cc(C(F)(F)F)c3)N(NC(=O)OC(C)(C)C)C2C1=O (stereo unspecified)

>  <composite z-score>
0.369

$$$$
>  <COMPOUND>
COc1cc(NN2C(C(O)C3CCCCC3)C=CC3C(=O)N(C)C(=O)C32)cc(OC)c1OC (stereo unspecified)

>  <composite z-score>
-0.608

$$$$
>  <COMPOUND>
COC(=O)[C@@]1(Cc2ccccc2)[C@H]2c3cc(C(=O)N(C)C)n(CCn4cc([N+](=O)[O-])nc4C)c3C[C@H]2CN1C(=O)c1ccccc1

>  <composite z-score>
0.216

$$$$
>  <COMPOUND>
CCOC(=O)C[C@H]1[C@H](OC(=O)c2cc3ccccc3oc2=O)[C@@H](NC(=O)c2ccc3ccccc3c2)c2cc(OCCCO)ccc2N1C(=O)Cc1ccc(OC)cc1

>  <composite z-score>
0.631

$$$$
>  <COMPOUND>
CCOC(=O)C1=C[C@@H](C(C)(C)C)N(S(=O)(=O)c2ccc(C)cc2)[C@H]1c1ccc(C)cc1

>  <composite z-score>
1.12

$$$$
